Every entry's value here was drawn from the supplement of paper PMC9112550.

Tested on: Escherichia coli TOP10
experimental-protocol: shrunken log2 fold change of peptide-encoding DNA abundance (4.5 h post-induction vs induction); higher = less antimicrobial activity (less host growth inhibition)
measurement-context: time post-induction: 4.5 h; library: site-saturation at positions 5, 18, 19, 20
Categories are defined by ranges of shrunken log2 fold change, namely small value = under -0.1, mid value = from -0.1 up to 0.1, large value = 0.1 and over

[
  {
    "residue-codes": "RRIRLRPPRLPRPRPRPNFLPRP",
    "class-name": "small value"
  },
  {
    "residue-codes": "RRIRCRPPRLPRPRPRPTRPPRP",
    "class-name": "large value"
  },
  {
    "residue-codes": "RRIRKRPPRLPRPRPRPYWEPRP",
    "class-name": "mid value"
  }
]

**Q:** Quick check: band for RRIRLRPPRLPRPRPRPHFFPRP
**A:** small value

**Q:** Class for RRIRGRPPRLPRPRPRPNHRPRP ?
**A:** mid value

**Q:** Form field 'band' for RRIRFRPPRLPRPRPRPSYQPRP
**A:** small value

**Q:** Class label required: RRIRPRPPRLPRPRPRPNRYPRP
**A:** mid value

**Q:** Hey, which category is RRIRKRPPRLPRPRPRPDIMPRP in, do you know?
**A:** large value

**Q:** GET /class?item= RRIRHRPPRLPRPRPRPRWLPRP
**A:** large value

**Q:** Pick a category. Item: RRIRERPPRLPRPRPRPKVEPRP
**A:** mid value

====

// values below are reported shrunken log2 fold change
Test system: Escherichia coli TOP10
experimental-protocol: shrunken log2 fold change of peptide-encoding DNA abundance (4.5 h post-induction vs induction); higher = less antimicrobial activity (less host growth inhibition)
measurement-context: time post-induction: 4.5 h; library: site-saturation at positions 5, 18, 19, 20
Quick one: just the number, no unit, thanks!

**Q:** For the sequence RRIRTRPPRLPRPRPRPSWRPRP , give its reported shrunken log2 fold change.
**A:** 0.153

====

Tested on: Escherichia coli TOP10
experimental-protocol: shrunken log2 fold change of peptide-encoding DNA abundance (4.5 h post-induction vs induction); higher = less antimicrobial activity (less host growth inhibition)
measurement-context: time post-induction: 4.5 h; library: site-saturation at positions 5, 18, 19, 20
test-readout: shrunken log2 fold change
The reply should be a number, written without any unit.

Would you please look over these solved cases?
[
  {
    "residue-codes": "RRIRTRPPRLPRPRPRPNWCPRP",
    "shrunken log2 fold change": -0.0796
  },
  {
    "residue-codes": "RRIRSRPPRLPRPRPRPNNQPRP",
    "shrunken log2 fold change": -0.104
  }
]

**Q:** Write down shrunken log2 fold change measured for item RRIRCRPPRLPRPRPRPSYEPRP
**A:** -0.374

**Q:** Supply reported shrunken log2 fold change belonging to this sequence: RRIRIRPPRLPRPRPRPRDIPRP
**A:** -0.203

**Q:** Provide shrunken log2 fold change value for the following sequence: RRIRHRPPRLPRPRPRPTGSPRP
**A:** 0.0528

**Q:** Item RRIRHRPPRLPRPRPRPNVVPRP : provide shrunken log2 fold change
**A:** 0.015

**Q:** Give shrunken log2 fold change for RRIRHRPPRLPRPRPRPLRDPRP
**A:** 0.271

**Q:** Read off the recorded shrunken log2 fold change for RRIRMRPPRLPRPRPRPTETPRP
**A:** 0.511

====

System: Escherichia coli TOP10
experimental-protocol: shrunken log2 fold change of peptide-encoding DNA abundance (4.5 h post-induction vs induction); higher = less antimicrobial activity (less host growth inhibition)
measurement-context: time post-induction: 4.5 h; library: site-saturation at positions 5, 18, 19, 20
Values of shrunken log2 fold change greater than or equal to 0.02 map to satisfied; values below map to not satisfied.

Recorded results for 6 sequences are shown here.
[
  {
    "residue-codes": "RRIRIRPPRLPRPRPRPWPCPRP",
    "class-name": "not satisfied"
  },
  {
    "residue-codes": "RRIRGRPPRLPRPRPRPLKNPRP",
    "class-name": "satisfied"
  },
  {
    "residue-codes": "RRIRNRPPRLPRPRPRPKYEPRP",
    "class-name": "not satisfied"
  },
  {
    "residue-codes": "RRIRPRPPRLPRPRPRPKGHPRP",
    "class-name": "satisfied"
  },
  {
    "residue-codes": "RRIRDRPPRLPRPRPRPEGIPRP",
    "class-name": "not satisfied"
  },
  {
    "residue-codes": "RRIRCRPPRLPRPRPRPPIHPRP",
    "class-name": "not satisfied"
  }
]

**Q:** Decide: shrunken log2 fold change of RRIRYRPPRLPRPRPRPKFRPRP >= 0.02?
**A:** not satisfied

**Q:** Can RRIRTRPPRLPRPRPRPNHSPRP be said to have shrunken log2 fold change at or above 0.02?
**A:** not satisfied

**Q:** For this sequence, is measured shrunken log2 fold change 0.02 or higher? RRIRPRPPRLPRPRPRPPKRPRP
**A:** satisfied

**Q:** Is shrunken log2 fold change at least 0.02? Consider RRIRERPPRLPRPRPRPVVPPRP
**A:** not satisfied

**Q:** Textbook exercise: given the entry RRIRSRPPRLPRPRPRPRMMPRP , state whether its shrunken log2 fold change is greater than or equal to 0.02.
**A:** satisfied

**Q:** Has RRIRNRPPRLPRPRPRPAVWPRP a recorded shrunken log2 fold change greater than or equal to 0.02?
**A:** satisfied

====

System: Escherichia coli TOP10
experimental-protocol: shrunken log2 fold change of peptide-encoding DNA abundance (4.5 h post-induction vs induction); higher = less antimicrobial activity (less host growth inhibition)
measurement-context: time post-induction: 4.5 h; library: site-saturation at positions 5, 18, 19, 20
Label Satisfied when shrunken log2 fold change is at or above 0.02; anything below gets Not satisfied.

# count of solved cases: 4
[
  {
    "residue-codes": "RRIRLRPPRLPRPRPRPNNMPRP",
    "class-name": "Not satisfied"
  },
  {
    "residue-codes": "RRIRIRPPRLPRPRPRPKLYPRP",
    "class-name": "Not satisfied"
  },
  {
    "residue-codes": "RRIRCRPPRLPRPRPRPAASPRP",
    "class-name": "Satisfied"
  },
  {
    "residue-codes": "RRIRWRPPRLPRPRPRPYDIPRP",
    "class-name": "Not satisfied"
  }
]

Proceed to the following item.
**Q:** Could you tell me if the measured shrunken log2 fold change of RRIRIRPPRLPRPRPRPKSMPRP reaches 0.02 or more?
**A:** Not satisfied

====

System: Escherichia coli TOP10
experimental-protocol: shrunken log2 fold change of peptide-encoding DNA abundance (4.5 h post-induction vs induction); higher = less antimicrobial activity (less host growth inhibition)
measurement-context: time post-induction: 4.5 h; library: site-saturation at positions 5, 18, 19, 20
A collection of sequences and their measured shrunken log2 fold change

[
  {
    "residue-codes": "RRIRMRPPRLPRPRPRPQFFPRP",
    "tested-target": "Escherichia coli TOP10",
    "test-readout": "shrunken log2 fold change",
    "measured": -0.207
  }
]

**Q:** Specify reported shrunken log2 fold change for the sequence shown: RRIRFRPPRLPRPRPRPYNWPRP
**A:** -0.0539

**Q:** Tell us which shrunken log2 fold change value is on record for RRIRIRPPRLPRPRPRPCEVPRP
**A:** 0.0421

====

System: Escherichia coli TOP10;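 also: peptides expressed intracellularly from a pBAD plasmid library in pooled LB shake-flask culture, induced with 0.3% L-arabinose, DNA abundance read by NGS, three biological replicates, DESeq2 with apeglm shrinkage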
experimental-protocol: shrunken log2 fold change of peptide-encoding DNA abundance (4.5 h post-induction vs induction); higher = less antimicrobial activity (less host growth inhibition)
measurement-context: time post-induction: 4.5 h; library: site-saturation at positions 5, 18, 19, 20
test-readout: shrunken log2 fold change
Simply state the number, no unit and no words.

[
  {
    "residue-codes": "RRIRHRPPRLPRPRPRPASGPRP",
    "test-readout": "shrunken log2 fold change",
    "measured": 0.368
  }
]

**Q:** Read off the recorded shrunken log2 fold change for RRIRWRPPRLPRPRPRPDFDPRP
**A:** 0.0791

**Q:** // Input: RRIRHRPPRLPRPRPRPHCWPRP . Output its shrunken log2 fold change only.
**A:** -0.0124

**Q:** Note down shrunken log2 fold change recorded for RRIRQRPPRLPRPRPRPSLCPRP
**A:** -0.0894

**Q:** Provide one value: measured shrunken log2 fold change of RRIRQRPPRLPRPRPRPEPAPRP
**A:** 0.789

**Q:** Dear colleague, please send me the reported shrunken log2 fold change for RRIRPRPPRLPRPRPRPGEEPRP when you can.
**A:** 0.359

**Q:** Provide shrunken log2 fold change value for the following sequence: RRIRKRPPRLPRPRPRPHCDPRP
**A:** 0.266

**Q:** Read off the recorded shrunken log2 fold change for RRIRNRPPRLPRPRPRPDHDPRP
**A:** -0.224
